assay: Evaluation of compounds' pharmacokinetics in SD rats in vivo (intravenous injection and oral administration); set-up: species or system Sprague Dawley rats; conditions: male, Sprague-Dawley, rat, plasma, 2 mg/kg, 2 mpk, single intravenous injection and oral administration, read-out: Concentration integral AUC
readout-label: AUC (µM·h)

CC(C)Oc1ccc(-c2nc(-c3cccc4c3CCC43CC(=O)N(CCO)C3)no2)cc1C(F)F (stereo not shown)    4.35

---

assay: Evaluation of compounds' pharmacokinetics in SD rats in vivo (intravenous injection and oral administration); design: species or system Sprague Dawley rats; conditions: male, Sprague-Dawley, rat, plasma, 2 mg/kg, 2 mpk, single intravenous injection and oral administration, read-out: Half life T1/2 (converted)
readout-label: half-life

CC(C)Oc1ccc(-c2nc(-c3cccc4c3CCC43CC(=O)N(CCO)C3)no2)cc1C(F)F (stereo not shown) [Example 9]    99.3 h

---

experiment: Evaluation of compounds' pharmacokinetics in SD rats in vivo (intravenous injection and oral administration); set-up: species or system Sprague Dawley rats; conditions: male, Sprague-Dawley, rat, plasma, 3 mg/kg, 3 mpk, single intravenous injection and oral administration, read-out: Half life T1/2 (converted)
Each entry below carries its recorded half-life.
readout-label: half-life (h)

CC(C)Oc1ccc(-c2nc(-c3cccc4c3CCC43CC(=O)N(CCO)C3)no2)cc1C#N (single isomer, unassigned) [Example 21 isomer 1]    3.02
CC(C)Oc1ccc(-c2nc(-c3cccc4c3CCC43CCN(C4CC(C(=O)O)C4)C3)no2)cc1C#N (single isomer, unassigned) [Example 47 Isomer 3]    3.98
CC(C)Oc1ccc(-c2nc(-c3cccc4c3CC[C@@H]4NCCO)no2)cc1C#N [Ozanimod, reference compound]    5.24
